Where do these numbers come from? They come from ChEMBL document CHEMBL1201862.

Kindly supply the reported GI50 values for the records listed here.
- Tested on: OVCAR-4
- assayName: NCI tumour cell line growth inhibition, 48 h
Activity calls are given as the source filed them. No stated cut-off is given here; in the data, active = GI50 up to about 1.1 µM and inactive = higher.

Tell us which GI50 value is on record for CC(=O)O[C@]12CCC[C@H]1C1(O)C(O)CCC[C@H]12 (stereo partly specified)
> 100 µM (inactive)

Tell us which GI50 value is on record for Cc1ccc(S(=O)(=O)N2CCC[C@@H]2C(=O)O[C@@H]2CCC3CC=CC32)cc1 (stereo partly specified)
47 µM (inactive)

Tell us which GI50 value is on record for CC1=CC(C)(C)[C@H]2O[C@@]3(O)C[C@]4(C)[C@H]5C[C@@](C(C)C)(O[C@H]4c4ccoc4)O[C@H]4[C@]5(C3)O[C@@]1(O)[C@]24O
54.2 µM (inactive)

Tell us which GI50 value is on record for COC(=O)C1=C(O)C(C(=O)OC)[C@@]2(O)[C@@H](C(=O)OC)C(c3ccc(OC(=O)/C(=C/c4ccc(Cl)cc4)c4ccc(Cl)cc4)cc3)C[C@@H]1[C@@H]2C(=O)OC (stereo partly specified)
20.6 µM (inactive)

Tell us which GI50 value is on record for O=C(Cn1c2ccc(Br)cc2c2nc3ccccc3nc21)NC1CCCCC1
> 100 µM (inactive)

Tell us which GI50 value is on record for OCC(CCc1ccccc1I)C1=CCC2(CC1)OCCO2 (stereo unspecified)
18.9 µM (inactive)

Tell us which GI50 value is on record for c1cc2c(cc1C(N1CCNCC1)N1CCNCC1)OCO2
> 100 µM (inactive)

Tell us which GI50 value is on record for CN(C)c1ccc(/C=c2\sc3nnc(-c4ccco4)n3c2=O)cc1
> 100 µM (inactive)

Tell us which GI50 value is on record for COc1ccc2[nH]c3c(cnn4cnnc34)c2c1
> 100 µM (inactive)

Tell us which GI50 value is on record for CCN(CC)CC(=O)Nc1ccc2c(c1)C(=O)c1ccc(NC(=O)CN(CC)CC)cc1C2=O
39.1 µM (inactive)

Tell us which GI50 value is on record for C=C(C1=CC(=O)C(C)(C)O1)[C@@H]1CC=C([C@@H]2CC[C@H]3[C@@]2(C)CC[C@H]2C(C)(C)C(=O)[C@H](O)C[C@]32C)[C@H](O)O1
3.11 µM (inactive)

* * *

- Tested on: Hs-578T
- assayName: NCI tumour cell line growth inhibition, 48 h
The source made the active and inactive calls. Cut-off read from the data, not from the text of the source: active = GI50 up to about 1.1 µM and inactive = higher.
reportedMetric: GI50

Tell us which GI50 value is on record for CC(=O)OCC1OC(OCCCCCCO)C(OC(C)=O)C(OC(C)=O)C1OC(C)=O (stereo not drawn)
> 100 µM (inactive)

Tell us which GI50 value is on record for [O-]/[N+](=N\c1ccccc1CO)c1ccccc1CO
> 100 µM (inactive)

Tell us which GI50 value is on record for COc1cc2c(cc1OC)C(=O)N(c1ccc(OCCN3CCCC3)cc1)C2
> 100 µM (inactive)

* * *

Kindly supply the reported GI50 values for the records listed here.
- Tested on: A549
- assayName: NCI tumour cell line growth inhibition, 48 h
Calls of active or inactive are those of the source. Cut-off read from the data, not from the text of the source: active = GI50 up to about 1.1 µM and inactive = higher.

Tell us which GI50 value is on record for COc1cc2c(/C=C3/C(=O)N(c4ccccc4)c4ccccc43)c(Cl)[nH]c2cc1C
3.41 µM (inactive)

Tell us which GI50 value is on record for O=[N+]([O-])C(C(Cl)=C(Cl)Cl)=C(n1cncn1)n1cncn1
> 22.1 µM (inactive)

Tell us which GI50 value is on record for O=C1Cc2c([nH]c3ccccc23)-c2cc(Br)ccc2N1
> 100 µM (inactive)

Tell us which GI50 value is on record for COC1CC(OC)C(O)C(CO)O1 (stereo unspecified)
> 100 µM (inactive)

Tell us which GI50 value is on record for O=C(CSc1nc(-c2ccccc2)c(-c2ccccc2)[nH]1)NNC(=S)Nc1ccccc1
> 100 µM (inactive)

Tell us which GI50 value is on record for CCCCCC(=O)CCCCCCCC(O)CC(=O)OCC (stereo unspecified)
> 100 µM (inactive)
